Numbers sourced from BigSolDB 2.1.

conditions: in water, 303.15 K
List of solubility (mole fraction) values.

Sample answers from the record:
Cc1ccc(C(C)C)cc1O : 0.000155
C=CCc1ccc(O)c(OC)c1 : 0.00023
Cc1ccc(C(C)C)cc1 : 6.9e-06

Sample CC(C)=CCCC(C)CCO (stereo unspecified) — what was its solubility (mole fraction)?
0.000187

Another compound to look at: C=CC(C)(O)CCC=C(C)C (stereo unspecified)
0.000332

Check CC(C)=CCC/C(C)=C/CO too.
0.000139

====

conditions: in water, 313.15 K
Values of solubility (mole fraction) greater than or equal to 0.0002 map to 1 (yes); values below map to 0 (no).

CC(C)=CCCC(C)CCO (configuration not stated) : 1 (yes)
CC(C)=CCC/C(C)=C/CO : 1 (yes)
Cc1ccc(C(C)C)cc1 : 0 (no)
Cc1ccc(C(C)C)cc1O : 0 (no)
Cc1ccccc1 : 0 (no)

// inclusive: solubility (mole fraction) at least 0.0002? input: C=CC(C)(O)CCC=C(C)C (configuration not stated)
1 (yes)

And what about the compound C=CCc1ccc(O)c(OC)c1 ?
1 (yes)

====

conditions: in water, 323.15 K
# solubility (mole fraction) per record follows

Answered examples (3):
Cc1ccc(C(C)C)cc1O : 0.000172
CC(C)=CCC/C(C)=C/CO : 0.00127
Cc1ccccc1 : 0.000126

I have this molecule here, Cc1ccc(C)cc1 , and I need its recorded solubility (mole fraction).
3.65e-05

Repeat with C=CCc1ccc(O)c(OC)c1
0.000312

Another molecule to check: C=CC(C)(O)CCC=C(C)C (stereo not drawn)
0.00111

// repeat for Cc1ccc(C(C)C)cc1 and report
1.89e-05

Follow-up entry: CC(C)=CCCC(C)CCO (stereo not drawn)
0.000308

====

conditions: in water, 298.15 K
outcome measure: solubility (mole fraction)
Answer using only a numeral; do not append any unit.

Use these answered entries as a reference point.
Cc1ccc(C(C)C)cc1 : 4.8e-06
CC(C)=CCC/C(C)=C/CO : 0.000103
Cc1ccccc1 : 0.000113
Cc1ccc(C(C)C)cc1O : 0.000144
C=CCc1ccc(O)c(OC)c1 : 0.000228
Cc1ccc(C)cc1 : 2.62e-05

Need solubility (mole fraction), item C=CC(C)(O)CCC=C(C)C (stereo not drawn)
0.000181

Another: CC(C)=CCCC(C)CCO (stereo not drawn)
0.000218

====

conditions: in water, 308.15 K
outcome measure: solubility (mole fraction)
Provide a numeric answer; units are not to be included.

Cc1ccc(C(C)C)cc1 : 9.9e-06
Cc1ccc(C)cc1 : 3.07e-05

Need solubility (mole fraction), item C=CC(C)(O)CCC=C(C)C (stereo not drawn)
0.000472

Would you kindly repeat that for Cc1ccccc1 ?
0.000118

And then CC(C)=CCC/C(C)=C/CO , what is it?
0.000375

Could you do the same for Cc1ccc(C(C)C)cc1O , please?
0.000164

Another molecule to check: C=CCc1ccc(O)c(OC)c1
0.000254

Please do the same for CC(C)=CCCC(C)CCO (stereo not drawn) as well.
0.000187

====

Entries and their solubility (mole fraction) values follow.
conditions: in water, 318.15 K
// no unit, no text: just the number

Use these answered entries as a reference point.
Cc1ccc(C(C)C)cc1 : 1.51e-05
C=CCc1ccc(O)c(OC)c1 : 0.000286
CC(C)=CCC/C(C)=C/CO : 0.000922
CC(C)=CCCC(C)CCO (stereo unspecified) : 0.000249
Cc1ccc(C(C)C)cc1O : 0.00017

Quick check: solubility (mole fraction) of C=CC(C)(O)CCC=C(C)C (stereo unspecified) ?
0.000844
